Assay: Quantitative highthroughput screen to assess conditional lethalithy of P12 Ichikawa cells grown in RPMI1640 with untreated serum (RPMI+s) (AID 1963881); note: nearly all actives have a fitted effect of over 35% in size
Settings: ATP luminescence, 48 h; viability; series mostly up to 45.8 µM
Records with an inconclusive call do not appear. Activity calls are given as the source filed them. Calls come from the whole dose curve; as a rule, active = well fitted cell-killing curve with a large enough effect; inconclusive = small, poorly fitted or top-dose-only effect; inactive = flat fitted curve, though single readings scatter.
Just give me one of these, please: t (active), f (inactive)

Before answering, review these 9 worked examples.
INSERT INTO assay_data (molecule, labelclass) VALUES
  ('c1cncc(CN2CCC(n3ncc4c(N5CCOCC5)nc(-c5ccc6[nH]ccc6c5)nc43)CC2)c1', 't'),
  ('CN(NC(=O)CC(=O)NN(C)C(=S)c1ccccc1)C(=S)c1ccccc1', 't'),
  ('O=C(O)CCCCCC(=O)NN=C1CCCC1', 'f'),
  ('O=C(CCc1ccc(O)cc1)c1c(O)cc(O)cc1O[C@@H]1O[C@H](CO)[C@H](O)[C@H](O)[C@H]1O', 'f'),
  ('NC[C@H](O)c1ccc(O)c(O)c1', 'f'),
  ('CN1C(C(=O)Nc2ccccn2)=C(O)c2sccc2S1(=O)=O', 'f'),
  ('O=C(CCCCCCC(=O)Nc1cccnc1)NO', 't'),
  ('COc1ccc(CCC(=O)Nc2nc3ccc(Cl)cc3s2)cc1OC', 'f'),
  ('C[C@H](CCC(=O)O)[C@H]1CC[C@H]2[C@@H]3[C@H](O)C[C@@H]4C[C@H](O)CC[C@]4(C)[C@@H]3CC[C@]12C', 'f');

Request: // outcome(item) with item = C=C1C(=O)[C@@]23C(CC[C@@H]1[C@H]2O)[C@@]12CO[C@]3(O)[C@@H](O)[C@@H]1C(C)(C)CC[C@@H]2O (stereo not given in full)
Response: t
